Below is a list of entries, each paired with its recorded pIC50 value.
Assay Target: purified recombinant human JAK2 protein (Homo sapiens, UniProt O60674)
Sequence (O60674 whole entry): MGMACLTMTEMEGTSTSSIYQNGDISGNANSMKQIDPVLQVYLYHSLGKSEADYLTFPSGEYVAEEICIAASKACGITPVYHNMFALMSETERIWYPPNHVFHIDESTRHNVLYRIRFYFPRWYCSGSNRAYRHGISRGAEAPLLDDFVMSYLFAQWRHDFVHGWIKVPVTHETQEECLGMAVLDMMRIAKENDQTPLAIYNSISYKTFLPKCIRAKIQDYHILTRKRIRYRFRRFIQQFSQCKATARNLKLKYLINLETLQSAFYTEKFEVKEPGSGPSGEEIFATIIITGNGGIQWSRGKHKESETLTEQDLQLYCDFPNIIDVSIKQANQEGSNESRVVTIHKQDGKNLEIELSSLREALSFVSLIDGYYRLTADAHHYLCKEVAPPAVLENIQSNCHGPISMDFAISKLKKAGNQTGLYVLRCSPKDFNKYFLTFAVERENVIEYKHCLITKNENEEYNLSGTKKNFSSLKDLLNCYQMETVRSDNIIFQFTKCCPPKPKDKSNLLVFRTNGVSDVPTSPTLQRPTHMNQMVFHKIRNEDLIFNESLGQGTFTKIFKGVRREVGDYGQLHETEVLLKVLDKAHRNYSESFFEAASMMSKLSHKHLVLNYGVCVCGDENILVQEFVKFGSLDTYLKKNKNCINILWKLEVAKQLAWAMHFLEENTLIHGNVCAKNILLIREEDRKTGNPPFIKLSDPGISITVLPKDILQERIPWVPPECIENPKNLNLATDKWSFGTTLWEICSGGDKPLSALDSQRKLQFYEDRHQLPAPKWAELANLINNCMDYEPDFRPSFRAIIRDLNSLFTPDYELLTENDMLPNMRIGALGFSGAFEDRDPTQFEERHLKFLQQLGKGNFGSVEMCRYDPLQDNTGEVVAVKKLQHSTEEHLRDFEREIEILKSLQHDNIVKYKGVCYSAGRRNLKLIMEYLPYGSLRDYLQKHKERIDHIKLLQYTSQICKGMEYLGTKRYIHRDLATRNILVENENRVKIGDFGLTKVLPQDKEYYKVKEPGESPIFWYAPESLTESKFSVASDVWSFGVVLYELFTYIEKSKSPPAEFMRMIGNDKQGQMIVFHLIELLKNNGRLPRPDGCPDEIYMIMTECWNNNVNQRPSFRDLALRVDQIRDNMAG
Assay Remarks: Measurement of JAK2 kinase-inhibitory activity
Protocol Conditions: FL-Peptide 22 1 μM, ATP 10 μM, 25° C., 80 minutes
pIC50: −log10 of the molar value.
Assay Readout: pIC50

> print(dat)
                                    compound   val
 1  C=CC(=O)NC1CCC=C(c2c(OC)cnc3[nH]cc(-c4ccco4)c23)C1 (stereo not shown)  6.77
 2  C1=C(c2ccnc3[nH]ccc23)CCCC1 [Comparative Example 1, reference compound]  6.35
 3  C=CC(=O)N[C@H]1CCC=C(c2ccnc3[nH]cc(-c4nnco4)c23)C1  6.59
 4  C=CC(=O)NC1CCC=C(c2ccnc3[nH]cc(-c4nn(C)c(=O)o4)c23)C1 (stereo not shown)  6.00
 5  C=CC(=O)NC1CCC=C(c2ccnc3[nH]cc(-c4cccnc4)c23)C1 (stereo not shown)  5.59
 6  C=CC(=O)NC1CCC=C(c2ccnc3[nH]cc(-c4cccnc4F)c23)C1 (stereo not shown)  5.60
 7  C=CC(=O)NC1CCC=C(c2ccnc3[nH]cc(-c4cn[nH]c4)c23)C1 (stereo not shown)  6.24
 8  C=CC(=O)NC1CCC=C(c2ccnc3[nH]cc(-c4cncc(CO)c4)c23)C1 (stereo not shown)  5.72
 9  C=CC(=O)NC1CCC=C(c2ccnc3[nH]cc(-c4ccc(N)nc4)c23)C1 (stereo not shown)  5.32
10  C=CC(=O)NC1CCC=C(c2ccnc3[nH]cc(-c4nncs4)c23)C1 (stereo not shown)  5.68
